Origin of values: PubChem BioAssay (NCI)

# protocol details: NCI Yeast Anticancer Drug Screen. Data for the mec2-1 strain (AID 157)
# run conditions: S. cerevisiae mec2-1 strain, at 5.0 µM (retest, dose inferred, filed as 0.5), stronger effect = higher value
About 79,000 compounds went through this panel and 15% of them were active in at least one assay; those are over-represented in the sample as a whole.
Exercise: for every item that follows, state its recorded growth inhibition.
One number for each entry, in %.

Reference set, count: 5
molecule=CSC(=S)N/N=C/c1cccc(C)n1 unit_of_measurement=% reported_value=5
molecule=Cc1occc1C(=S)Nc1ccc(Cl)c(C(=O)OCC(F)(F)F)c1 unit_of_measurement=% reported_value=21
molecule=COC(=O)/C=C(\C)Nc1ccc(Cc2ccc(Cl)cc2)cc1 unit_of_measurement=% reported_value=-3
molecule=N#C/C(=C\NC(=S)Nc1cc(Cl)ccc1Cl)c1nc2ccccc2s1 unit_of_measurement=% reported_value=7
molecule=CCCCC(=S)N1CCN(c2ccccc2)CC1 unit_of_measurement=% reported_value=10

Switching to the query record.
Q: // returns reported growth inhibition for input CC(C)(C)SC(=O)C1(C)OC1c1ccc([N+](=O)[O-])cc1 (stereo unspecified)
Result: -4

---

# protocol details: NCI Yeast Anticancer Drug Screen. Data for the bub3 strain (AID 167)
# run conditions: S. cerevisiae bub3 mutant strain, at 50.0 µM, stronger effect = higher value
# Description: Growth inhibition of yeast strains with defined genetic alterations is measured as a screen for potential anti-cancer activity. Selected strains with alterations in DNA damage repair or cell cycle control were exposed to compounds and growth inhibition was measured relative to vehicle treated controls. The strain used in this assay is bub3
About 79,000 compounds went through this panel and 15% of them were active in at least one assay; those are over-represented in the sample as a whole. Activity calls are given as the source filed them. Cut-off read from the data, not from the text of the source: active = growth inhibition above about 70%; inactive = the rest.
result type: growth inhibition

Here are 5 compounds together with their reported answers.
compound="CCC(c1ccc(OC)cc1)C(CC)c1ccc(O)c(CN(C)C)c1 (stereo not given)" reported_value="49% (inactive)"
compound="COC(C(=O)C1=C2Oc3c4c(cc(O)c3C(=O)C2C2=C(CCCC2)C1=O)OC(C)(C)C=C4)C(C)CCC=C(C)C (stereo not given)" reported_value="78% (active)"
compound="COc1ccc(C(=O)NCCN2CCN3Cc4[nH]c5ccccc5c4CC3C2)cc1 (stereo not given)" reported_value="-5.05% (inactive)"
compound=O=C(O)CCn1c2ccccc2c2ccccc21 reported_value="55.5% (inactive)"
compound="CCOC(=O)C(C#N)c1cc(O)c(C(C#N)C(=O)OCC)cc1O (stereo not given)" reported_value="13.4% (inactive)"

Hey, quick one: what's growth inhibition for each of these?
1. C/C(=N\NC(=S)N1CCCCCC1)c1ccccn1
2. N#COc1ccc(Oc2ccc(OC#N)cc2)cc1
3. Cc1cccc(NC(=O)c2cc3cc(N=Nc4ccccc4Cl)ccc3oc2=O)c1
4. O=C(/C=C\C(=O)Nc1cccc(N(Cc2ccccc2)Cc2ccccc2)c1)Nc1cccc(N(Cc2ccccc2)Cc2ccccc2)c1

Result:
1. 92.1% (active)
2. 40% (inactive)
3. 78.3% (active)
4. 46.2% (inactive)

Q: # growth inhibition lookup, item "CN(C)C(=S)Oc1ccc(C(C)(C)C)cc1"
Result: 60.4% (inactive)

---

# protocol details: NCI Yeast Anticancer Drug Screen. Data for the mec2-1 strain (AID 157)
# run conditions: S. cerevisiae mec2-1 strain, at 50.0 µM (retest, dose inferred, filed as 5.0), stronger effect = higher value
About 79,000 compounds went through this panel and 15% of them were active in at least one assay; those are over-represented in the sample as a whole.
Hi there, I'd appreciate the recorded growth inhibition for every entry that follows.
Numbers only, in %.

compound=CCCCOC(=O)C(=O)/C(=C/N1C(=O)/C(=C/C(C)=C/c2ccccc2)SC1=S)C(=O)C=C(C)C reported_value=10
compound="COC(=O)C(Sc1ccc(Cl)cc1)C1SC(=S)N(C)C1=O (centres undefined)" reported_value=99
compound=C=C(c1ccccc1)[P+](c1ccccc1)(c1ccccc1)c1ccccc1 reported_value=100
compound=CC1=C(C(=O)Nc2ccccc2)C(c2cc(Cl)cc(Cl)c2)C(C(=O)Nc2ccccc2)=C(C)N1 reported_value=19
compound=OCN(CO)c1ccc2c(c1)Cc1cc(F)ccc1-2 reported_value=99
compound=CN1CCC(OC(=O)c2ccc3ncccc3c2)CC1 reported_value=4
compound=Brc1ccc(N2COc3ccc4ccccc4c3C2)cc1 reported_value=-1
compound=CCC[CH2][Sn]([CH2]CCC)([O]C(=O)c1cc(F)ccc1F)[O][Sn]([CH2]CCC)([CH2]CCC)[O]C(=O)c1cc(F)ccc1F reported_value=97
compound=Cc1cccc(C)c1O reported_value=99
compound="CCCN(CCC)CC(O)c1ccc2ccc3ccc(Cl)cc3c2c1 (centres undefined)" reported_value=98

Parameters: items (list). Returns: growth inhibition for each item.
1. CC(=O)c1c(O)ccc2nc3ccccc3nc12
2. Cc1ccccc1N=Nc1c(C)nn(C(N)=S)c1-c1ccccc1

Result:
[92, 96]
